From: ChEMBL document CHEMBL3433997

target: Glucose transporter (Leishmania mexicana) (UniProt O61059); test: ST_JUDE_LEISH: Cytotoxicity at 2uM final concentration against transgenic Leishmania Mexicana promastigotes LmGT2 that are glucose transport deficient and complemented with the L. Mexicana glucose transporter 2. Activity is measured by DNA content using SYBR green in vitro; format: functional
For each of the compounds below, state its inhibition.
The reply must contain the numeric value and, after it, the unit.

Q) Fill blank: measured inhibition of the compound N#Cc1ccc(-c2ccc(C(=O)NCCCCN3CCC(c4ccc5c(c4OCc4ccccn4)CCCC5)CC3)cc2)cc1 is ____.
A) 0.17%

Q) Fill blank: measured inhibition of the compound CCc1cn(CCCOC)c2ccc(C(=O)N[C@@H](Cc3ccccc3)[C@H](O)CNCc3cccc(C(F)(F)F)c3)cc12 is ____.
A) 2.24%

Q) Fill blank: measured inhibition of the compound Cc1nc(-c2ccccc2)nc(N2CCN(C(=O)c3ccco3)CC2)c1Cc1ccccc1F is ____.
A) 7.76%

Q) Fill blank: measured inhibition of the compound CCc1cn2c3c(cc(C(=O)N[C@@H](Cc4ccccc4)[C@H](O)CNC4CCCCC4)cc13)N(CC)S(=O)(=O)CC2 is ____.
A) -3.68%

Q) Fill blank: measured inhibition of the compound Cc1ccc(S(=O)(=O)N(CCCN2CCN(C)CC2)Cc2csc(-c3ccc(CNCc4ccccc4)cc3)n2)cc1 is ____.
A) 9.91%

Q) Fill blank: measured inhibition of the compound O=C(NCCc1ccccc1)[C@H](Cc1ccccc1)Nc1ccnc(NCC2CCCCC2)n1 is ____.
A) 0.61%

Q) Fill blank: measured inhibition of the compound CCOc1ccccc1CCNC(C)Cc1ccc(C(=O)Nc2ccc(CC(C)NCCc3cccc(Cl)c3)cc2)cc1 (configuration not stated) is ____.
A) 3.04%

Q) Fill blank: measured inhibition of the compound O=S(=O)(c1ccccc1C(F)(F)F)C1CC2CCC(C1)N2S(=O)(=O)c1ccc(Cl)c(C(F)(F)F)c1 (configuration not stated) is ____.
A) 0.74%

Q) Fill blank: measured inhibition of the compound COc1cccc(C(C)(C)NC[C@@H](O)[C@H](Cc2ccccc2)NC(=O)c2cc(C3CCCC3)cc(N3CCCCS3(=O)=O)c2F)c1 is ____.
A) 1.09%

Q) Fill blank: measured inhibition of the compound O=C(Nc1ccc(F)cc1F)NC1CCN(CCCCCNC(=O)C2CC2c2ccc(Cl)c(Cl)c2)CC1 (configuration not stated) is ____.
A) 3.47%

Q) Fill blank: measured inhibition of the compound CN(C)CCCOc1cccc(NC(=O)Nc2ccc(Cl)c(Cl)c2)c1 is ____.
A) -1.24%

Q) Fill blank: measured inhibition of the compound COc1ccc(-c2csc(N(CCCN(C)C)C(=O)c3cc4c(C)nn(-c5ccccc5)c4s3)n2)cc1 is ____.
A) 2.84%

Q) Fill blank: measured inhibition of the compound Nc1c(-c2ccc(C(=O)NCCNCc3ccccc3)cc2)cnn1-c1ccc(C(F)(F)F)cc1 is ____.
A) -0.31%

Q) Fill blank: measured inhibition of the compound NC(=O)COc1c(C2CCN(CCN3CCC(CNC(=O)c4ccc(-c5ccc(C(F)(F)F)cc5)cc4)CC3)CC2)ccc2c1CCCC2 is ____.
A) 3.32%

Q) Fill blank: measured inhibition of the compound Oc1ccc(CCNc2nc(NCCOc3cccc4ccccc34)nc(N3CCNCC3)n2)cc1 is ____.
A) 2.56%

Q) Fill blank: measured inhibition of the compound O=C(NCC1CCN(Cc2cccc(C(F)(F)F)c2)C1)c1cc(-c2cccc(Cl)c2)cs1 (configuration not stated) is ____.
A) -3.57%

Q) Fill blank: measured inhibition of the compound COc1ccc2nc3cc(Cl)ccc3c(NCCNCC(O)CO)c2n1 (configuration not stated) is ____.
A) 5.98%

---

target: Glucose transporter (Leishmania mexicana); experiment: ST_JUDE_LEISH: Cytotoxicity at 2uM final concentration against transgenic Leishmania Mexicana promastigotes LmGT2 that are glucose transport deficient and complemented with the L. Mexicana glucose transporter 2. Activity is measured by DNA content using SYBR green in vitro; format: functional
For each of the molecules below, state its inhibition.
# value in %; strip the unit string

Q) Fill blank: measured inhibition of the molecule O=C(NC1CCCCC1)C(c1cccs1)N(CCc1ccccc1)C(=O)c1ccco1 (stereo not given) is ____.
A) 0.46

Q) Fill blank: measured inhibition of the molecule O=S(=O)(c1cc(Cl)ccc1Cl)N1CCCCC(c2ccc(C(F)(F)F)cc2)=N1 is ____.
A) 5.01

Q) Fill blank: measured inhibition of the molecule NC(=O)c1ccc(C(=O)Nc2cccc(-c3ccc(-c4nc5cc(C(F)(F)F)ccc5[nH]4)cc3)c2)cc1 is ____.
A) -2.73

Q) Fill blank: measured inhibition of the molecule CCN(CC)CCCNCc1ccc(-c2ccc(C(F)(F)F)cc2)cc1 is ____.
A) -0.45

Q) Fill blank: measured inhibition of the molecule Clc1ccc(Nc2nc3ccc(Cl)cc3nc2Nc2ccc(Cl)cc2)cc1 is ____.
A) 7.3

Q) Fill blank: measured inhibition of the molecule CN1CCCN(Cc2ccc(-c3cccc(NC(=O)c4cccc(C#N)c4)c3)cc2)CC1 is ____.
A) 5.62

Q) Fill blank: measured inhibition of the molecule Cc1cccc2nc(-c3ccc(-c4ccc(CNCCCN5CCCC5=O)cc4)cc3)[nH]c12 is ____.
A) 4.42

Q) Fill blank: measured inhibition of the molecule Cc1cc(OCC2CCN(c3ncc(C(=O)NC4CC4)cc3Cl)CC2)ccc1F is ____.
A) -1.06

Q) Fill blank: measured inhibition of the molecule COc1ccc2[nH]cc(C3CCN(CCCCNC(=O)c4ccc(NC(=O)c5ccc(Cl)cc5)cc4)CC3)c2c1 is ____.
A) 5.72

Q) Fill blank: measured inhibition of the molecule CC(C)Cn1c(Sc2ccc(C#N)c([N+](=O)[O-])c2)nnc1-c1cccs1 is ____.
A) 0.24

Q) Fill blank: measured inhibition of the molecule Cc1c(C)n(C2CCCC2)c2ncnc(OC3CCN(CC(=O)NC4CC4)CC3)c12 is ____.
A) 7.75

Q) Fill blank: measured inhibition of the molecule CCOC(=O)c1c(C)n(-c2ccccc2)c2ccc(OC(=O)COc3ccc(Cl)cc3Cl)cc12 is ____.
A) 6.97

Q) Fill blank: measured inhibition of the molecule Fc1ccc2[nH]c3c(NCCCN4CCOCC4)ncnc3c2c1 is ____.
A) -0.69

Q) Fill blank: measured inhibition of the molecule Cc1nn(CC(C)C)c2sc(C(=O)N3CCN(S(=O)(=O)c4ccc(C#N)cc4)CC3)cc12 is ____.
A) 5.07

Q) Fill blank: measured inhibition of the molecule CCCCCCCCCN1CC[C@@H](CCCc2ccnc3ccc(O)cc23)[C@@H](CC)C1 is ____.
A) -1.91

Q) Fill blank: measured inhibition of the molecule O=C(O)CCSc1ncnc2[nH]cnc12 is ____.
A) -2.15

Q) Fill blank: measured inhibition of the molecule COc1ccc(NC(=O)[C@H](Cc2ccccc2)Nc2cc(C)nc(NCCN3CCCC3)n2)cc1 is ____.
A) 7.49

Q) Fill blank: measured inhibition of the molecule CCC(C)NS(=O)(=O)c1ccc2nc(Nc3ccc(C)cc3)n(C3CCCCC3C)c2c1 (stereo not given) is ____.
A) 2.03

Q) Fill blank: measured inhibition of the molecule COc1ccc2nccc([C@@H](O)CN3CCC(NCCOc4ccc(F)cc4F)CC3)c2c1 is ____.
A) -1.61

Q) Fill blank: measured inhibition of the molecule CN1CCN(Cc2nc(-c3ccc4c(Nc5ccc(Oc6ccccc6)cc5)ccnc4c3)cs2)CC1 is ____.
A) 1.74

Q) Fill blank: measured inhibition of the molecule CO/C(=C\C=C\c1cc2cc(Cl)c(Cl)cc2[nH]1)C(=O)NCCCN1CCN(c2ccncc2)CC1 is ____.
A) 3.48

Q) Fill blank: measured inhibition of the molecule O=C(NCCN1CCCCC1)N1CCCN(c2ncnc3cc(-c4ccccc4)sc23)CC1 is ____.
A) 2.05

Q) Fill blank: measured inhibition of the molecule CCNc1cc(C(=O)N[C@@H](Cc2ccccc2)[C@H](O)CNCc2cc(C#N)ccc2OC)cc(N2CCCC2=O)c1 is ____.
A) 9.67

Q) Fill blank: measured inhibition of the molecule COc1ccc(-c2nnc(Sc3ccc(C#N)c([N+](=O)[O-])c3)n2CC(C)C)cc1 is ____.
A) 1.92

Q) Fill blank: measured inhibition of the molecule CN1CCN(c2cc(-c3ccncc3)nc(-c3cccnc3)n2)CC1 is ____.
A) 3

Q) Fill blank: measured inhibition of the molecule Cc1onc(-c2ccccc2)c1C(=O)Nc1nc(-c2ccccn2)nc2ccsc12 is ____.
A) 0.03

Q) Fill blank: measured inhibition of the molecule CCCC(=O)Nc1ccc(Nc2nc(C)cc(N3CCCC3)n2)cc1 is ____.
A) -0.91

Q) Fill blank: measured inhibition of the molecule OC1CCCN(Cc2ccc(-c3ccc(-c4nc5cc(F)ccc5[nH]4)s3)cc2)C1 (stereo not given) is ____.
A) 1.76

Q) Fill blank: measured inhibition of the molecule Cc1cc(N/N=C/c2ccccc2[N+](=O)[O-])c2cccc(C)c2n1 is ____.
A) 7.94

Q) Fill blank: measured inhibition of the molecule Fc1cccc(COc2ccc(Nc3ncnc4sc(C#C[C@H]5CC[C@H](CNCC(F)(F)F)N5)cc34)cc2Cl)c1 is ____.
A) 1.3

Q) Fill blank: measured inhibition of the molecule COc1ccc(NC(=O)C2CCN(CCCCCNC(=O)/C=C/c3ccc(Cl)c(Cl)c3)CC2)cc1 is ____.
A) 2.85

Q) Fill blank: measured inhibition of the molecule COc1cc(Nc2ccnc3ccc(C(C)(C)C)cc23)cc(OC)c1OC is ____.
A) 1.66

Q) Fill blank: measured inhibition of the molecule CCCCCC(C)N/C(=N/c1cccc(Cl)c1Cl)Nc1ccc(C#N)cc1O (stereo not given) is ____.
A) 2.7

Q) Fill blank: measured inhibition of the molecule CCN(CC)c1ccc2nc(N)nc(N)c2c1 is ____.
A) 7.56

Q) Fill blank: measured inhibition of the molecule Cc1cc2c(cc1Cl)N(C(=O)Nc1cc(F)cc(-c3cncnc3)c1)CC2 is ____.
A) 2.7

Q) Fill blank: measured inhibition of the molecule Cc1ccc(CNC(=O)[C@H](CCCN)Nc2cc(C)nc(NCC3CCCCC3)n2)cc1 is ____.
A) 0.32

Q) Fill blank: measured inhibition of the molecule CCC(O)(C#Cc1c(C)nc(N)nc1N)CC is ____.
A) -0.68

Q) Fill blank: measured inhibition of the molecule Cc1ccc(-c2ccc(Cl)cc2Oc2cnc(N)nc2N)o1 is ____.
A) 0.26

Q) Fill blank: measured inhibition of the molecule O=C(/C=C/c1ccc(Cl)c(Cl)c1)N1CCC(CNCc2cccc3cc[nH]c23)CC1 is ____.
A) 1.48

Q) Fill blank: measured inhibition of the molecule CC(C)(C)c1ccc(CNC(=O)c2ccc(CNC3CCC(N)CC3)s2)cc1 (stereo not given) is ____.
A) 0.31
